test: logP; assay type: physicochemical; conditions: pH 2.3, pH 2.3; read-out: log P (pH2.3)

- MOLECULE: "CCN(C)C=Nc1cc(C)c(Oc2ccc3c(c2)CCCC3)cc1C [Compound 13]"
  logP: 2.14

----------
assay: logP; type: physicochemical; conditions: neutral; read-out: logP neutr.

- SMILES STRUCTURE: "CCN(C)C=Nc1cc(C)c(Oc2ccc3c(c2)CCCC3)cc1C"
  logP: 6.31

Where do the numbers come from? From patent US8080688B2.
